Below are IC50 values measured for HDAC6 (Homo sapiens (Human), UniProt Q9UBN7).

# MOLECULAR STRING, STUDY TARGET, IC50
data = [
    ("O=C(NO)c1cccc(Nc2nc3cc(Cl)c(Cl)cc3o2)c1", "HDAC6 (Homo sapiens (Human), UniProt Q9UBN7)", "500 to 1000 nM"),
]

Kindly consider the entry below.
Input: Notebook: pull reported IC50 for HDAC6 (Homo sapiens (Human), UniProt Q9UBN7), entry O=C(NO)c1cccc2c1C[C@]1(CCN(Cc3ccc(Cl)c(C(F)(F)F)c3)C1=O)C2
Output: > 10000 nM

---

molecular target: Recombinant N-terminal GST tag full-length human HDAC11 (Homo sapiens (Human)); experiment: Probe binding HDAC11 assay, time resolved fluorescence (TRF); conditions: read-out: HDAC11 IC50 Range
Sequence (Q96DB2 whole entry): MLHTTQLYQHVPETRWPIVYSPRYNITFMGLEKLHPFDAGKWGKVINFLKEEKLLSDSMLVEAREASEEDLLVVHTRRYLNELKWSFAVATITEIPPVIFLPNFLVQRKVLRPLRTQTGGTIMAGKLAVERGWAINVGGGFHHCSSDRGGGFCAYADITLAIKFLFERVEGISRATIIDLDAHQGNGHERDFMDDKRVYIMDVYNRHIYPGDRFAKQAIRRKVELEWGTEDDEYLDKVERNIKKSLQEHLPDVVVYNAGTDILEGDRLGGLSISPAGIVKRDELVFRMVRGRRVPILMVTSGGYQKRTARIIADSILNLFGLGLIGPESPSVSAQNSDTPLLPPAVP
Recorded IC50 values for a group of compounds are listed next.

Past entries and their recorded results:
# MOLECULAR STRING, IC50
data = [
    ("O=C(NCc1ccccc1)ONC(=O)c1cccc(Nc2nc3cc(-c4ccccc4)c(C(F)(F)F)cc3[nH]2)c1", "< 500 nM"),
    ("COCCn1c(Nc2cccc(C(=O)NO)c2)nc2cccc(OC)c21", "> 1000 nM"),
    ("Cn1c(Nc2cccc(C(=O)NO)c2)nc2cc(-c3cccnc3)c(C(F)(F)F)cc21", "500 to 1000 nM"),
    ("Cn1ncc2ccc(-c3cc4[nH]c(Nc5cccc(C(=O)NO)c5)nc4cc3C(F)(F)F)cc21", "< 500 nM"),
    ("O=C(NO)c1cccc(Cc2nc3cc(Cl)c(Cl)cc3[nH]2)c1", "< 500 nM"),
    ("COCc1ccc(-c2cc3[nH]c(Nc4cccc(C(=O)NO)c4)nc3cc2C(F)(F)F)cc1", "< 500 nM"),
    ("COCCN(c1cccc(C(=O)NO)c1)c1nc2ccccc2[nH]1", "> 1000 nM"),
]

Kindly consider the entry below.
Input: I have this compound here, O=C(NO)c1cccc(Nc2nc3cc(Br)c(C(F)(F)F)cc3[nH]2)c1 , and I need its recorded IC50.
Output: < 500 nM

---

Below are IC50 values measured for UniProt O15379.
Sequence (O15379 whole entry): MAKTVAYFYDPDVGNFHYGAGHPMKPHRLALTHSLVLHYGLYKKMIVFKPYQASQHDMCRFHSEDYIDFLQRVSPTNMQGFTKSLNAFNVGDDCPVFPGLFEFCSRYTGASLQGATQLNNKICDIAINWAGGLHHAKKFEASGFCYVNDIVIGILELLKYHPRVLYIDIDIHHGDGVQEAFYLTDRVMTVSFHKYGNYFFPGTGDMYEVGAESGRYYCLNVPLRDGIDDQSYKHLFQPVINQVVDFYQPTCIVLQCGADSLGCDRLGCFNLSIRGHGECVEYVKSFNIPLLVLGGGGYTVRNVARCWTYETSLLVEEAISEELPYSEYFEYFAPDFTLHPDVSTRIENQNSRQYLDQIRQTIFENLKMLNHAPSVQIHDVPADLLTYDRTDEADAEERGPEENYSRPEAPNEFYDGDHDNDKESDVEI
Sequence (Q9Y618 395-489 partner): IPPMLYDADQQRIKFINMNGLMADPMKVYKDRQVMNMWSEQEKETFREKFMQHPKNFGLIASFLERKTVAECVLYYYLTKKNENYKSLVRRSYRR

# MOLECULAR STRING, IC50
rows = [
    ("O=C(NO)c1cccc2c1C[C@]1(CCN(Cc3ccc(Cl)c(C(F)(F)F)c3)C1=O)C2", "> 10 µM"),
]

Kindly consider the entry below.
Input: Notebook: pull reported IC50 for UniProt O15379, entry O=C(NO)c1cccc(Nc2nc3cc(Cl)c(Cl)cc3o2)c1
Output: > 10 µM

---

biological target: Full length human recombinant HDAC11 (Homo sapiens (Human), UniProt Q96DB2); test: Enzymatic HDAC11 assay, electrophoretic mobility shift; conditions: substrate FAM-RHKK(tri-fluor-Ac)-NH2, read-out: HDAC11 IC50 Range
Sequence (Q96DB2 whole entry): as the sequence (Q96DB2 whole entry) above
REPORTED PROPERTY: IC50

Past entries and their recorded results:
# COMPOUND, STUDY TARGET, IC50
records = [
    ("O=C(NO)c1cccc2c1OC1(CC2)CCN(C(=O)C2(c3cccc(C(F)(F)F)c3)CC2)CC1", "Full length human recombinant HDAC11 (Homo sapiens (Human), UniProt Q96DB2)", "< 0.5 µM"),
    ("O=C(NO)c1cccc2c1CC1(CCN(Cc3ccccc3C(F)(F)F)C1=O)C2 (stereo not drawn)", "Full length human recombinant HDAC11 (Homo sapiens (Human), UniProt Q96DB2)", "0.5 to 1 µM"),
    ("O=C(NO)c1cccc2c1CC1(CCN(Cc3cccnc3)C1=O)C2 (stereo not drawn)", "Full length human recombinant HDAC11 (Homo sapiens (Human), UniProt Q96DB2)", "> 1 µM"),
]

Input: Notebook: pull reported IC50 for Full length human recombinant HDAC11 (Homo sapiens (Human), UniProt Q96DB2), entry O=C(NO)c1cccc2c1CC1(CCN(Cc3cccc(Cl)c3Cl)C1=O)C2 (stereo not drawn)
Output: < 0.5 µM

Input: Notebook: pull reported IC50 for Full length human recombinant HDAC11 (Homo sapiens (Human), UniProt Q96DB2), entry O=C(NO)c1cccc2c1OC1(CC2)CCN(Cc2ccc(F)cc2)CC1
Output: > 1 µM

Input: Notebook: pull reported IC50 for Full length human recombinant HDAC11 (Homo sapiens (Human), UniProt Q96DB2), entry O=C(NO)c1cccc2c1OC1(CC2)CCN(C2CCCCC2)CC1
Output: > 1 µM

Source listed as patent US10508088B2.
